# Test system: HeLa
# PROTOCOL_NOTES: Cytostatic activity against human HeLa cells assessed as inhibition of cell proliferation after 72 hrs by coulter counting analysis
# Assay type: functional, cell-based
# ASSAY_SETUP: Homo sapiens, HeLa, 72 h
READOUT: IC50 (µM)
Respond numerically; units are µM and should not be typed.

Item: COC(=O)C[C@H](NC(=O)OC(C)(C)C)C(=O)N(C)C1(C(=O)NCc2ccccc2)CCN(Cc2ccccc2)CC1 | IC50: 11

COC(=O)C[C@H](NC(=O)OC(C)(C)C)C(=O)N(CC(=O)OC)C1(C(=O)NCc2ccccc2)CCN(Cc2ccccc2)CC1 yielded IC50 of 32

// sample CC[C@@H](C)[C@H](NC(=O)OCc1ccccc1)C(=O)N(Cc1ccccc1)C1(C(=O)NCc2ccccc2)CCN(C(=O)OC(C)(C)C)CC1 , its IC50 was 11

CC(C)(C)NC(=O)C1(N(C(=O)[C@H](Cc2ccccc2)NC(=O)OC(C)(C)C)C2CC2)CCN(Cc2ccccc2)CC1 yielded IC50 of 20
